# tested.on: CYP3A4 (Homo sapiens, UniProt P08684)
# Sequence (P08684 whole entry): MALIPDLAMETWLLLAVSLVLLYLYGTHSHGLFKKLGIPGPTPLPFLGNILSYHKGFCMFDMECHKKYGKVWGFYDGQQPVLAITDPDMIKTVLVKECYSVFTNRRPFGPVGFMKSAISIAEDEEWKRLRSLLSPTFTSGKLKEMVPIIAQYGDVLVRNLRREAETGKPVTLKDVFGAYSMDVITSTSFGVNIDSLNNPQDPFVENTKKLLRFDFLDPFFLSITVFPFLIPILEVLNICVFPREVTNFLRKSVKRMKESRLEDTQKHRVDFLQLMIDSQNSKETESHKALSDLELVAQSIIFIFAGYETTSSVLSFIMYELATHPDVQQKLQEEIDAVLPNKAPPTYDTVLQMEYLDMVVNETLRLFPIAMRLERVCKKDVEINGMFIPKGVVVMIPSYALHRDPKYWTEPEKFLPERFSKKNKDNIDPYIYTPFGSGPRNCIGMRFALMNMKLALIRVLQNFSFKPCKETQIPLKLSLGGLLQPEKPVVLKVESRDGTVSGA
# assay.name: CYP inhibition in human liver microsomes, CYP3A4 (midazolam)
# Assay type: in vitro ADME
# Design: incubated with human liver microsomes; tissue Eurofins ITEMG232; host or cells: human liver microsomes
# experimental.setup: probe midazolam, substrate midazolam, read-out: CYP3A4 midazolam Inh %
# Protocol: The following substrates were used: CYP1A phenacetin, CYP2B6 bupropion, CYP2C8 paclitaxel and amodiaquine, CYP2C9 diclofenac, CYP2C19 omeprazole, CYP2D6 dextromethorphan, CYP3A midazolam and testosterone. At the end of the incubation, the formation of metabolite was monitored by HPLC-MS/MS as the peak area response.
Measured inhibition at 10 µM, listed per entry for reference.
Hi! Could you send only the number? It should be in %, unit omitted.

Worked set:
Cc1cn(Cc2ccc(-c3cc(CC(C)C)sc3S(=O)(=O)NC(=O)NCc3ccccc3)cc2)c(C)n1 = 25
CC(C)Cc1cc(-c2ccc(Cn3ccnc3C(C)C)c(F)c2)c(S(=O)(=O)NC(=O)NCCC(F)(F)F)s1.O=C(O)C(F)(F)F = -5
Cc1nccn1Cc1ccc(-c2cc(CC(C)C)sc2S(=O)(=O)NC(=O)NCc2nccn2C)cc1F = 38

Pending compound:
May I ask what inhibition at 10 µM has been recorded for Cc1nccn1Cc1ccc(-c2cc(CC(C)C)sc2S(=O)(=O)NC(=O)NC(C)c2ccccn2)cc1F (stereo not shown) ?
16

Numbers sourced from patent US12435072B2.
